Attribution: patent US20210139565A1

// pKd lookup, one value per entry
Biological target: T1, Y. pestis F1 protein (Yersinia pestis KIM5, UniProt P26948 22-170)
T1 construct: also called F1 antigen; Fl
T1 sequence (P26948 22-170 limits assumed): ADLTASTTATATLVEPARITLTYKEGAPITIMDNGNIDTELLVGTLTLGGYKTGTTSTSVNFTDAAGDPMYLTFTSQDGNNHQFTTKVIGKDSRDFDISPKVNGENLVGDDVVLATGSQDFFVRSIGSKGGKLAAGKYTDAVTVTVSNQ
Test: SPR, BIACORE, F1 immobilized on CM5 chip
Units for pKd: none; it is -log10 of a concentration expressed in mol/L.

Binder: 4F59 (VHH) VHH: QVQLQESGGGLVRPGGSLRLSCEASGTTFRSLVMKWYRQAPGKEREWVAFISSPGDRTRYTEAVKGRFTISRDNAKNALYLQMNGLKPEDTAVYYCNANGIYWGKGTQVTVSS
Value Reported: 7.57

Next up:
Q: // returns reported pKd for input 3F55 (VHH) VHH: QVQLQESGGGLVQAGGSLRLSCAVSGMMYIREAIRWYRQAPGKQREWVAFVSSTGNPRYTDSVKGRFTISRDNAKNTVYLQMNSLTPEDTAVYYCNTYLGSRDYWGQGTQVTVSS
Result: 8.66
